# TESTED_SYSTEM: cAMP-dependent protein kinase catalytic subunit alpha [V123M] (Bos taurus, UniProt P00517, V123M)
# PROCEDURE_SUMMARY: Kinase Activity Assay
# CONDITION_SUMMARY: pH 6.8; 25 °C
RESULT_TYPE: IC50 (nM)

>>> result("CCCCCCOC(=O)[C@]1(O)C[C@@H]2O[C@@]1(C)n1c3ccccc3c3c4c(c5c6ccccc6n2c5c31)C(=O)NC4")
222
>>> result("C[C@@H](N)[C@H]1CC[C@H](C(=O)Nc2ccncc2)CC1")
60000
>>> result("Cc1cncc2cccc(S(=O)(=O)N3CCCNC[C@@H]3C)c12 [H-1152]")
1520

---

# TESTED_SYSTEM: cAMP-dependent protein kinase catalytic subunit alpha [L49I,Q181K,T183A] (Bos taurus, UniProt P00517, L49I/Q181K/T183A)
# PROCEDURE_SUMMARY: Kinase Activity Assay
pIC50: −log10 of the molar value.
List of pIC50 values.
RESULT_TYPE: pIC50

>>> result("C[C@@H](N)[C@H]1CC[C@H](C(=O)Nc2ccncc2)CC1")
5.22
>>> result("CCCCCCOC(=O)[C@]1(O)C[C@@H]2O[C@@]1(C)n1c3ccccc3c3c4c(c5c6ccccc6n2c5c31)C(=O)NC4")
5.26

---

We begin with a simple list: items and their reported pIC50.
# TESTED_SYSTEM: cAMP-dependent protein kinase catalytic subunit alpha [V123M,T183A] (Bos taurus, UniProt P00517, T183A/V123M)
# PROCEDURE_SUMMARY: Kinase Activity Assay
pIC50: −log10 of the molar value.
RESULT_TYPE: pIC50

>>> result("Cc1cncc2cccc(S(=O)(=O)N3CCCNC[C@@H]3C)c12 [H-1152]")
6.53
>>> result("C[C@@H](N)[C@H]1CC[C@H](C(=O)Nc2ccncc2)CC1")
4.51

---

Listed here are compounds together with their documented IC50.
# TESTED_SYSTEM: cAMP-dependent protein kinase catalytic subunit alpha [L49I,V123M,E127D,Q181K,T183A] (Bos taurus, UniProt P00517, E127D/L49I/Q181K/T183A/V123M)
# PROCEDURE_SUMMARY: Kinase Activity Assay
RESULT_TYPE: IC50 (µM)

>>> result("CCCCCCOC(=O)[C@]1(O)C[C@@H]2O[C@@]1(C)n1c3ccccc3c3c4c(c5c6ccccc6n2c5c31)C(=O)NC4")
1.3
>>> result("C[C@@H](N)[C@H]1CC[C@H](C(=O)Nc2ccncc2)CC1")
6

---

# TESTED_SYSTEM: cAMP-dependent protein kinase catalytic subunit alpha [T183A] (Bos taurus, UniProt P00517, T183A)
# PROCEDURE_SUMMARY: Kinase Activity Assay
pIC50: −log10 of the molar value.
Listed compounds paired with reported pIC50
RESULT_TYPE: pIC50

>>> result("C[C@@H](N)[C@H]1CC[C@H](C(=O)Nc2ccncc2)CC1")
5.05
>>> result("Cc1cncc2cccc(S(=O)(=O)N3CCCNC[C@@H]3C)c12 [H-1152]")
6.96

---

# TESTED_SYSTEM: cAMP-dependent protein kinase catalytic subunit alpha (Bos taurus, UniProt P00517)
# PROCEDURE_SUMMARY: Kinase Activity Assay
# CONDITION_SUMMARY: pH 6.8; 25 °C
# Procedure: The enzyme activity was assayed by using an ATP regenerative NADH consuming system. The reaction was started with adding ATP to the mixture containing enzyme, substrate, and inhibitor. The decrease of NADH was time-dependent, and was measured at 340 nm with three independent measurements per data point. IC50 values were calculated using SigmaPlot 8.0 and Origin 5 software.
Catalogue of compounds with associated IC50
RESULT_TYPE: IC50 (nM)

>>> result("C[C@@H](N)[C@H]1CC[C@H](C(=O)Nc2ccncc2)CC1")
42000
>>> result("CCCCCCOC(=O)[C@]1(O)C[C@@H]2O[C@@]1(C)n1c3ccccc3c3c4c(c5c6ccccc6n2c5c31)C(=O)NC4")
56
>>> result("Cc1cncc2cccc(S(=O)(=O)N3CCCNC[C@@H]3C)c12")
394

---

Reported IC50 values for the following molecules.
# TESTED_SYSTEM: cAMP-dependent protein kinase catalytic subunit alpha [V123M,Q181K,T183A] (Bos taurus, UniProt P00517, Q181K/T183A/V123M)
# PROCEDURE_SUMMARY: Kinase Activity Assay
RESULT_TYPE: IC50 (nM)

>>> result("Cc1cncc2cccc(S(=O)(=O)N3CCCNC[C@@H]3C)c12")
223
>>> result("CCCCCCOC(=O)[C@]1(O)C[C@@H]2O[C@@]1(C)n1c3ccccc3c3c4c(c5c6ccccc6n2c5c31)C(=O)NC4")
68
>>> result("C[C@@H](N)[C@H]1CC[C@H](C(=O)Nc2ccncc2)CC1")
25000

---

IC50 reference
# TESTED_SYSTEM: Rho-associated protein kinase 2 (Bos taurus, UniProt Q28021)
# Sequence (Q28021 whole entry): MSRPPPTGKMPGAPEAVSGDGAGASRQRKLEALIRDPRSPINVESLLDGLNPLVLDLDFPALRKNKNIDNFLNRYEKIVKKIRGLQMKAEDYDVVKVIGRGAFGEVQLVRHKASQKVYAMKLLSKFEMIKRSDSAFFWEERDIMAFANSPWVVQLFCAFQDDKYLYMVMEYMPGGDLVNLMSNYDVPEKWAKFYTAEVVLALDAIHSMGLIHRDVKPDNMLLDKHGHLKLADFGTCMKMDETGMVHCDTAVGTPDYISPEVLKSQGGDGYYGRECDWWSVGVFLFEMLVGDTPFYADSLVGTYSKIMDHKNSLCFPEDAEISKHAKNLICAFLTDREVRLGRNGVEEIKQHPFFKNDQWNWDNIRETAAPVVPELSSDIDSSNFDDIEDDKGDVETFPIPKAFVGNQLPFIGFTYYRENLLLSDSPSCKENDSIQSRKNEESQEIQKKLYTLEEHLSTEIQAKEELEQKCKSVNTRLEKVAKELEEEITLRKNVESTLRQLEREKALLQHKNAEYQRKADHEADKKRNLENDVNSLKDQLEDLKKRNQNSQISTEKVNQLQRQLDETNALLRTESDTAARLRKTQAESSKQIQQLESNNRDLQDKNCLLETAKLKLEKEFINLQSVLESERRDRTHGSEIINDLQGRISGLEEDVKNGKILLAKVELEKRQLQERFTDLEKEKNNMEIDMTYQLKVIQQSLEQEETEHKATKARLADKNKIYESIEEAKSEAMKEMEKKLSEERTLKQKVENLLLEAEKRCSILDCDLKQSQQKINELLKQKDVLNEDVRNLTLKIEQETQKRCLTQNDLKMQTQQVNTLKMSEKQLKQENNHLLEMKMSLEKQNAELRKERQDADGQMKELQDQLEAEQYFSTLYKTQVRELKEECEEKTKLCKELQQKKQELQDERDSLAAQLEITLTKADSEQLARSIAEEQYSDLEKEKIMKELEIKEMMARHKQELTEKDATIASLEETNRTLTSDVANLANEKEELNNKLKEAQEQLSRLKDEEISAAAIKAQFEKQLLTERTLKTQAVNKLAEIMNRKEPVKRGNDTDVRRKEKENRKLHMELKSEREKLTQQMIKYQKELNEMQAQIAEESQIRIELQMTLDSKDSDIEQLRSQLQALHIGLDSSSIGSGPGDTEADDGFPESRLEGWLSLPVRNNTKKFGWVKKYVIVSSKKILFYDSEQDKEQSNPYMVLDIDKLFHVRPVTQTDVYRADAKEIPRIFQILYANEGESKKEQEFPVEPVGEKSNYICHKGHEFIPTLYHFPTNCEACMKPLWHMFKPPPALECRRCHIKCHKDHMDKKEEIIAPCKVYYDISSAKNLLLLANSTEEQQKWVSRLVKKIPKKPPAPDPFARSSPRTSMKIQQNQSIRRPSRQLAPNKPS
# PROCEDURE_SUMMARY: Kinase Activity Assay
RESULT_TYPE: IC50 (nM)

>>> result("O=S(=O)(c1cccc2cnccc12)N1CCCNCC1")
485
>>> result("CCCCCCOC(=O)[C@]1(O)C[C@@H]2O[C@@]1(C)n1c3ccccc3c3c4c(c5c6ccccc6n2c5c31)C(=O)NC4")
1800
>>> result("C[C@@H](N)[C@H]1CC[C@H](C(=O)Nc2ccncc2)CC1")
500

---

# TESTED_SYSTEM: cAMP-dependent protein kinase catalytic subunit alpha [L49I] (Bos taurus, UniProt P00517, L49I)
# PROCEDURE_SUMMARY: Kinase Activity Assay
# CONDITION_SUMMARY: pH 6.8; 25 °C
pIC50: −log10 of the molar value.
RESULT_TYPE: pIC50

>>> result("C[C@@H](N)[C@H]1CC[C@H](C(=O)Nc2ccncc2)CC1")
4.55
>>> result("CCCCCCOC(=O)[C@]1(O)C[C@@H]2O[C@@]1(C)n1c3ccccc3c3c4c(c5c6ccccc6n2c5c31)C(=O)NC4")
4.99
>>> result("Cc1cncc2cccc(S(=O)(=O)N3CCCNC[C@@H]3C)c12 [H-1152]")
6.37
